- EXPERIMENT_NOTES: amyloid nucleation score (Sup35N fusion, yeast selection) (log enrichment); library NNK2; higher = more nucleation; inactive = no reads after selection;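 note: zero at mode of non-aggregating sequences after 7 days selection at 30°C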
Classify as follows. Reported amyloid nucleation score greater than or equal to 0.004: Fulfilled. Reported amyloid nucleation score below: Not fulfilled.

Exercise: Has "GFMFVFWKFKHGLMGPCSRD" a recorded amyloid nucleation score greater than or equal to 0.004?
Key: Fulfilled

Exercise: Has "VCRHFVRVKDQMDRTFNDKQ" a recorded amyloid nucleation score greater than or equal to 0.004?
Key: Fulfilled

Exercise: Has "YEYVSYCVSDFRYLLQTV" a recorded amyloid nucleation score greater than or equal to 0.004?
Key: Fulfilled

Exercise: Has "RIGDRSCSVRKEHKDAQWSI" a recorded amyloid nucleation score greater than or equal to 0.004?
Key: Fulfilled

Exercise: Has "HDRVIRQN" a recorded amyloid nucleation score greater than or equal to 0.004?
Key: Fulfilled

Exercise: Has "VKALNH" a recorded amyloid nucleation score greater than or equal to 0.004?
Key: Fulfilled

Exercise: Has "FTWVYMVGFKWWVSVCLLDS" a recorded amyloid nucleation score greater than or equal to 0.004?
Key: Not fulfilled

Exercise: Has "PNRYYQLGTYFLNVQVRQFG" a recorded amyloid nucleation score greater than or equal to 0.004?
Key: Fulfilled

Exercise: Has "YWLVRMVHGRAWPIFEENCQ" a recorded amyloid nucleation score greater than or equal to 0.004?
Key: Not fulfilled

Exercise: Has "KVFSPHRNWWVI" a recorded amyloid nucleation score greater than or equal to 0.004?
Key: Fulfilled

Exercise: Has "GAGPGSLAKRHYWDSSSQYE" a recorded amyloid nucleation score greater than or equal to 0.004?
Key: Not fulfilled

Exercise: Has "MTDLLTMVAYRLKGSRVSSM" a recorded amyloid nucleation score greater than or equal to 0.004?
Key: Fulfilled

Exercise: Has "YWSYSLGGSQEYSGHTMA" a recorded amyloid nucleation score greater than or equal to 0.004?
Key: Not fulfilled

Exercise: Has "SALNYSFFLL" a recorded amyloid nucleation score greater than or equal to 0.004?
Key: Not fulfilled

Exercise: Has "SFDVYVEARLMDSVTGLDRI" a recorded amyloid nucleation score greater than or equal to 0.004?
Key: Fulfilled

Exercise: Has "HYMRFYCCSYNANKTVSYVP" a recorded amyloid nucleation score greater than or equal to 0.004?
Key: Fulfilled

Exercise: Has "EYRYCMTHYYFLRCKLFNIF" a recorded amyloid nucleation score greater than or equal to 0.004?
Key: Not fulfilled

Exercise: Has "RTGRPSHDFRYGKQRFMVRP" a recorded amyloid nucleation score greater than or equal to 0.004?
Key: Fulfilled

Exercise: Has "RFFCLWFSWKNLGFNVKRAV" a recorded amyloid nucleation score greater than or equal to 0.004?
Key: Fulfilled

Exercise: Has "MKPAWYIVNEWLSGTRLECM" a recorded amyloid nucleation score greater than or equal to 0.004?
Key: Not fulfilled

Exercise: Has "CGNSHMYMNAGDFT" a recorded amyloid nucleation score greater than or equal to 0.004?
Key: Not fulfilled

Exercise: Has "GLNVHVVRLGIQLFFKWNDI" a recorded amyloid nucleation score greater than or equal to 0.004?
Key: Fulfilled

Exercise: Has "SIAHGQTSQNSTEWARVDG" a recorded amyloid nucleation score greater than or equal to 0.004?
Key: Fulfilled

Exercise: Has "GACGVSEVMHRVVFRGRLKR" a recorded amyloid nucleation score greater than or equal to 0.004?
Key: Fulfilled

Exercise: Has "RCKAAGCIHLVFFVCRDACC" a recorded amyloid nucleation score greater than or equal to 0.004?
Key: Fulfilled

Exercise: Has "LKSEALDGAADCRGCYSGPL" a recorded amyloid nucleation score greater than or equal to 0.004?
Key: Fulfilled

Exercise: Has "STCGEAVKTFLVGLFELFMV" a recorded amyloid nucleation score greater than or equal to 0.004?
Key: Fulfilled

Exercise: Has "VLCSCCLVVNIVNVLSVHSY" a recorded amyloid nucleation score greater than or equal to 0.004?
Key: Fulfilled

Exercise: Has "CFLTNRTRNSYRPSGKPLDM" a recorded amyloid nucleation score greater than or equal to 0.004?
Key: Not fulfilled

Exercise: Has "CQRQRLNFY" a recorded amyloid nucleation score greater than or equal to 0.004?
Key: Not fulfilled

Exercise: Has "RSKDYVFFCFSCTNWLC" a recorded amyloid nucleation score greater than or equal to 0.004?
Key: Fulfilled

Exercise: Has "GFTLEAKDWSTG" a recorded amyloid nucleation score greater than or equal to 0.004?
Key: Fulfilled
